Target: PLD1 (Homo sapiens, UniProt Q13393)
Sequence (Q13393 1-1074): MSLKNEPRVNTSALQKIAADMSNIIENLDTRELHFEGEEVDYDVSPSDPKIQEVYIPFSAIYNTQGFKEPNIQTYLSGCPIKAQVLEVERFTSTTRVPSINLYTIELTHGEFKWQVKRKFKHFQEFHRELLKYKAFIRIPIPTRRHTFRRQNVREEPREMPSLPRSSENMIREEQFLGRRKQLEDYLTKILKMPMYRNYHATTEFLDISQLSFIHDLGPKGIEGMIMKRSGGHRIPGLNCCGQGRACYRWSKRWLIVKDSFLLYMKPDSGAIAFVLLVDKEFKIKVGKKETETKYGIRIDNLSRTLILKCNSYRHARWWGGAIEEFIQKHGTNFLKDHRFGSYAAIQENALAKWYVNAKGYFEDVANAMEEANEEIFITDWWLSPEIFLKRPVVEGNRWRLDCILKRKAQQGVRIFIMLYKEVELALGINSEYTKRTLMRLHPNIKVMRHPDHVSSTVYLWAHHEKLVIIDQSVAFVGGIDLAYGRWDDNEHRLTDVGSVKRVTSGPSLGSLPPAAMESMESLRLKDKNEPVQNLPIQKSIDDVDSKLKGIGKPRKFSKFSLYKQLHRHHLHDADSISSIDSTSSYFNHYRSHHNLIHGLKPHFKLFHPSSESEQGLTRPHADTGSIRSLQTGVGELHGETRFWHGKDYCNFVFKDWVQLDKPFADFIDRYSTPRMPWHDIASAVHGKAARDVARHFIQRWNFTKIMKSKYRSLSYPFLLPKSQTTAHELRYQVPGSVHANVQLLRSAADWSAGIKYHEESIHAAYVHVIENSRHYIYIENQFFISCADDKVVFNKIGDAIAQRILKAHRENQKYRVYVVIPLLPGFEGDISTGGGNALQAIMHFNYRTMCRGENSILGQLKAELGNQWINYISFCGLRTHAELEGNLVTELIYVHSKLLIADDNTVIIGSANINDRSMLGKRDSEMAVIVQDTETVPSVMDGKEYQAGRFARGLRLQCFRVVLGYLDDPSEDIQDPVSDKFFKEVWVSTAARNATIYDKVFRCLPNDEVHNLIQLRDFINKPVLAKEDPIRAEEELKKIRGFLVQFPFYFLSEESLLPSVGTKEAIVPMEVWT
observable: IC50

INSERT INTO results (molecule, observable, observed_result) VALUES
  ('c1cc(N2CCNCC2)ccn1 [Compound 15]', 'IC50', '3.6 to 18 µM'),
  ('c1ccc(N2CCNCC2)nc1 [Compound 16]', 'IC50', '3.6 to 18 µM');
